This collection of values is drawn from patent US20220062258A1.

The molecules listed here are annotated with their pIC50.
tested on: HUVEC primary endothelial cells; assay: HUVEC proliferation assay (CyQUANT Direct); format: cell-based; settings: Homo sapiens, 72 h, 3 days incubation
pIC50: −log10 of the molar value.

{"molecule": "O=C1CCC(N2C(=O)c3ccc(NCCOCCOCCOCCNC(=O)c4cc5cc(N6CC[C@](O)(C(=O)NCc7cc(F)cc(F)c7)C6=O)ccc5[nH]4)cc3C2=O)C(=O)N1 (stereo partly shown) [Compound A42]", "relational.operator": "=", "pIC50": 5.34}
{"molecule": "Cc1ncsc1-c1ccc(CNC(=O)[C@@H]2C[C@@H](O)CN2C(=O)[C@@H](NC(=O)CCCCCNC(=O)c2cc3cc(N4CC[C@@](O)(C(=O)NCc5cc(F)cc(F)c5)C4=O)ccc3[nH]2)C(C)(C)C)cc1 (mixture of isomers) [Compound A3]", "relational.operator": "=", "pIC50": 4.52}
{"molecule": "O=C1CCC(N2C(=O)c3ccc(NCCCCCNC(=O)c4cc5cc(N6CCC(O)(C(=O)NCc7cc(F)cc(F)c7)C6=O)ccc5[nH]4)cc3C2=O)C(=O)N1 (stereo not shown) [Compound A4]", "relational.operator": "=", "pIC50": 5.80}
{"molecule": "O=C1CCC(N2C(=O)c3ccc(NCCCCOCCCCOCCCCNC(=O)c4cc5cc(N6CC[C@](O)(C(=O)NCc7cc(F)cc(F)c7)C6=O)ccc5[nH]4)cc3C2=O)C(=O)N1 (stereo partly shown) [Compound A51]", "relational.operator": "=", "pIC50": 6.40}
{"molecule": "CN(CCOCCOCCOCCOCCN(C)c1ccc2c(c1)C(=O)N(C1CCC(=O)NC1=O)C2=O)C(=O)c1cc2cc(N3CC[C@](O)(C(=O)NCc4cc(F)cc(F)c4)C3=O)ccc2[nH]1 (stereo partly shown) [Compound A47]", "relational.operator": "=", "pIC50": 6.62}
{"molecule": "Cc1ncsc1-c1ccc(CNC(=O)[C@@H]2C[C@@H](O)CN2C(=O)[C@@H](NC(=O)COCCOCCOCCOCCNC(=O)c2cc3cc(N4CCC(O)(C(=O)NCc5cc(F)cc(F)c5)C4=O)ccc3[nH]2)C(C)(C)C)cc1 (stereo partly shown) [Compound A7]", "relational.operator": "=", "pIC50": 5.14}
{"molecule": "CN(CCOCCOCCOCCOCCOCCN(C)c1cccc2c1C(=O)N(C1CCC(=O)NC1=O)C2=O)C(=O)c1cc2cc(N3CC[C@](O)(C(=O)NCc4cc(F)cc(F)c4)C3=O)ccc2[nH]1 (stereo partly shown) [Compound A45]", "relational.operator": "=", "pIC50": 6.21}
{"molecule": "O=C1CCC(N2C(=O)c3ccc(C#CCOCCOCCOCCOCCNC(=O)c4cc5cc(N6CC[C@](O)(C(=O)NCc7cc(F)cc(F)c7)C6=O)ccc5[nH]4)cc3C2=O)C(=O)N1 (stereo partly shown) [Compound A43]", "relational.operator": "=", "pIC50": 5.15}
{"molecule": "O=C1CCC(N2C(=O)c3cccc(C#CCOCCOCCOCCOCCOCCNC(=O)c4cc5cc(N6CC[C@](O)(C(=O)NCc7cc(F)cc(F)c7)C6=O)ccc5[nH]4)c3C2=O)C(=O)N1 (stereo partly shown) [Compound A46]", "relational.operator": "<", "pIC50": 4.52}
{"molecule": "O=C1CCC(N2C(=O)c3ccc(NC(=O)CCCCCCCCCCCCCNC(=O)c4cc5cc(N6CC[C@](O)(C(=O)NCc7cc(F)cc(F)c7)C6=O)ccc5[nH]4)cc3C2=O)C(=O)N1 (stereo partly shown) [Compound A50]", "relational.operator": "=", "pIC50": 6.74}
{"molecule": "Cc1ncsc1-c1ccc(CNC(=O)[C@@H]2C[C@@H](O)CN2C(=O)[C@@H](NC(=O)COCCOCCOCCOCCOCCNC(=O)c2cc3cc(N4CCC(O)(C(=O)NCc5cc(F)cc(F)c5)C4=O)ccc3[nH]2)C(C)(C)C)cc1 (stereo partly shown) [Compound A8]", "relational.operator": "=", "pIC50": 4.52}
{"molecule": "O=C1CCC(N2C(=O)c3ccc(NCCOCCOCCOCCN4CCN(C(=O)c5cc6cc(N7CC[C@](O)(C(=O)NCc8cc(F)cc(F)c8)C7=O)ccc6[nH]5)CC4)cc3C2=O)C(=O)N1 (stereo partly shown) [Compound A48]", "relational.operator": "=", "pIC50": 7.07}
{"molecule": "O=C1CCC(N2C(=O)c3cccc(NCCOCCOCCOCCOCCN4CCN(C(=O)c5cc6cc(N7CC[C@](O)(C(=O)NCc8cc(F)cc(F)c8)C7=O)ccc6[nH]5)CC4)c3C2=O)C(=O)N1 (stereo partly shown) [Compound A56]", "relational.operator": "=", "pIC50": 6.92}
{"molecule": "O=C1CCC(N2C(=O)c3cccc(NCCOCCOCCNC(=O)c4cc5cc(N6CCC(O)(C(=O)NCc7cc(F)cc(F)c7)C6=O)ccc5[nH]4)c3C2=O)C(=O)N1 (stereo not shown) [Compound A5]", "relational.operator": "=", "pIC50": 5.24}
{"molecule": "O=C1CCC(N2C(=O)c3ccc(OCCOCCOCCOCCOCCNC(=O)c4cc5cc(N6CC[C@](O)(C(=O)NCc7cc(F)cc(F)c7)C6=O)ccc5[nH]4)cc3C2=O)C(=O)N1 (stereo partly shown) [Compound A52]", "relational.operator": "=", "pIC50": 5.31}
{"molecule": "O=C1CCC(N2C(=O)c3cccc(NC(=O)CCCCCCCCCCCCCCCCNC(=O)c4cc5cc(N6CC[C@](O)(C(=O)NCc7cc(F)cc(F)c7)C6=O)ccc5[nH]4)c3C2=O)C(=O)N1 (stereo partly shown) [Compound A57]", "relational.operator": "<", "pIC50": 4.52}
{"molecule": "O=C1CCC(N2C(=O)c3ccc(NCCOCCOCCN4CCC5(CC4)CCN(C(=O)c4cc6cc(N7CC[C@](O)(C(=O)NCc8cc(F)cc(F)c8)C7=O)ccc6[nH]4)CC5)cc3C2=O)C(=O)N1 (stereo partly shown) [Compound A49]", "relational.operator": "=", "pIC50": 7.29}
{"molecule": "O=C1CCC(N2C(=O)c3ccc(NCCOCCOCCOCCOCCNC(=O)c4cc5cc(N6CCC(O)(C(=O)NCc7cc(F)cc(F)c7)C6=O)ccc5[nH]4)cc3C2=O)C(=O)N1 (stereo not shown) [Compound A2]", "relational.operator": "=", "pIC50": 4.52}
{"molecule": "O=C1CCC(N2C(=O)c3cccc(NCCOCCOCCOCCOCCNC(=O)c4cc5cc(N6CC[C@](O)(C(=O)NCc7cc(F)cc(F)c7)C6=O)ccc5[nH]4)c3C2=O)C(=O)N1 (stereo partly shown) [Compound A44]", "relational.operator": "=", "pIC50": 5.15}
